Quick reference for melting point among some compounds

- compound-string: "COc1cc(-c2cnc(C(C)(C)C)[nH]2)ccc1OCc1ncc(C(F)(F)F)cc1F"
  melting point: "178 to 182 °C"
- compound-string: "COc1cc(OCc2ccc(C(F)(F)F)nc2)c(C)cc1-c1[nH]c(C2CCC(F)(F)CC2)nc1Cl"
  melting point: "175 to 178 °C"
- compound-string: "COc1c(OCc2ccc(C(F)(F)F)cn2)ccc(-c2c[nH]c(C3CCC(F)(F)CC3)n2)c1OC"
  melting point: "155 to 157 °C"
- compound-string: "COc1cc(-c2[nH]c(C3CC(F)(F)C3)nc2Cl)ccc1OCc1ncc(C(F)(F)F)cc1F"
  melting point: "159 to 161 °C"
- compound-string: "COc1cc(OCc2ccncc2C(F)(F)F)ccc1-c1[nH]c(-c2ccc(F)nc2)nc1Cl"
  melting point: "203 to 208 °C"
- compound-string: "COc1cc(OCc2ncc(Cl)cc2F)ccc1-c1[nH]c(-c2ccc(Cl)nc2)nc1Br"
  melting point: "172 to 176 °C"
- compound-string: "COc1cc(-c2[nH]c(CCC(F)(F)F)nc2Cl)ccc1OCc1ncc(C(F)(F)F)cc1F"
  melting point: "116 to 119 °C"
- compound-string: "COc1cc(OCc2ccc(C(F)(F)F)cn2)ccc1-c1c[nH]c(-c2ccc(S(C)(=O)=O)nc2)n1"
  melting point: "213 to 214 °C"

----------
- compound: "COc1cc(OCc2ccc(C(F)(F)F)nc2)ccc1-c1c(Br)nc(-c2ccc(F)nc2)n1C [Example 305]"
  melting point: "134 to 136 °C"
- compound: "COc1cc(OCc2ncc(Br)cc2F)ccc1-c1[nH]c(-c2ccc(F)nc2)nc1Cl [Example 175]"
  melting point: "122 to 124 °C"
- compound: "COc1cc(-c2[nH]c(C3CCC(F)(F)CC3)nc2Br)ccc1OCc1ccc(C(F)(F)F)cn1 [Example 198]"
  melting point: "158 to 165 °C"
- compound: "COc1cc(-c2[nH]c(-c3ccc(F)nc3)nc2Cl)ccc1OCc1ccc(C(F)(F)F)nc1 [Example 177]"
  melting point: "202 to 204 °C"
- compound: "COc1cc(OCc2ccc(C(F)(F)F)cn2)ccc1-c1cn(C)c(-c2ccc(Cl)nc2)n1 [Example 168]"
  melting point: "186 to 190 °C"
- compound: "COc1cc(OCc2ncc(C)cc2C)ccc1-c1nc(-c2ccc(F)nc2)[nH]c1Cl [Example 206]"
  melting point: "109 to 124 °C"
- compound: "Oc1cc(OCc2ncc(C(F)(F)F)cc2F)ccc1-c1[nH]c(-c2ccc(F)nc2)nc1Br [Example 408]"
  melting point: "202 to 204 °C"
- compound: "COc1cc(OCc2ccncc2C(F)(F)F)ccc1-c1cnc(-c2ccc(Cl)nc2)[nH]1 [Example 100]"
  melting point: "220 to 228 °C"

----------
test-name: Solubility in gastric juice or intestinal juice model fluid (precipitation method using DMSO)
Format: physicochemical
condition-label: pH 6.8, kinetic from dmso stock, 2nd fluid for Disintegration Test of Japanese Pharmacopoeia (pH: 6.8), room temperature, read-out: Solubility (μg/mL) 2nd fluid
Experimental: Solubility in Gastric Juice or Intestinal Juice Model Fluid Measurement was performed by a precipitation method using DMSO. […] Subsequently, insoluble substances in each mixture were removed by filtration, and the UV absorption of each filtrate was measured. […]
Quick reference for solubility at 24 h among some molecules

- molecule: "COc1cc(OCc2ccnc(C(F)(F)F)c2)ccc1-c1cnc(-c2ccc(F)nc2)[nH]1 [Example 135]"
  value-qualifier: "="
  solubility at 24 h, µg/mL: 2.2
- molecule: "COc1cc(OCc2ccc(C(F)(F)F)nc2)ccc1-c1nc(-c2ccc(Cl)nc2)n(C)c1Br [Example 298]"
  value-qualifier: "="
  solubility at 24 h, µg/mL: 1.6
- molecule: "COc1cc(OCc2ccc(C(F)(F)F)cc2)ccc1-c1cnc(-c2ccc(F)nc2)[nH]1 [Example 115]"
  value-qualifier: "="
  solubility at 24 h, µg/mL: 2
- molecule: "COc1cc(-c2[nH]c(C3CCC3)nc2Cl)ccc1OCc1ccc(C(F)(F)F)cn1 [Example 193]"
  value-qualifier: "="
  solubility at 24 h, µg/mL: 0.8
- molecule: "COc1cc(OCc2ncc(C(F)(F)F)cc2Br)ccc1-c1cnc(-c2ccc(F)nc2)[nH]1 [Example 133]"
  value-qualifier: "="
  solubility at 24 h, µg/mL: 2
- molecule: "COc1cc(-c2c[nH]c(C3CCCCCC3)n2)ccc1OCc1ccc(C(F)(F)F)cn1 [Example 72]"
  value-qualifier: "="
  solubility at 24 h, µg/mL: 1.8
- molecule: "COc1cc(-c2c[nH]c(C3CCC(C(C)(C)C)CC3)n2)ccc1OCc1ccc(C(F)(F)F)cn1 (stereo not shown) [Example 69]"
  value-qualifier: "="
  solubility at 24 h, µg/mL: 1.3
- molecule: "COc1cc(OCc2cnccc2C(F)(F)F)ccc1-c1cnc(-c2ccc(F)nc2)[nH]1 [Example 131]"
  value-qualifier: "<"
  solubility at 24 h, µg/mL: 0.3
- molecule: "COc1cc(O[C@@H](C)c2ccc(C(F)(F)F)nc2)ccc1-c1[nH]c(-c2ccc(F)nc2)nc1Cl [Example 291]"
  value-qualifier: "="
  solubility at 24 h, µg/mL: 3.5
- molecule: "COc1cc(-c2nc(-c3ccc(Cl)nc3)[nH]c2C)ccc1OCc1ccc(C(F)(F)F)cn1 [Example 30]"
  value-qualifier: "="
  solubility at 24 h, µg/mL: 0.6
- molecule: "COc1cc(OCc2ccc(C(F)(F)F)nc2)ccc1-c1c[nH]c(-c2ccc(F)cn2)n1 [Example 26]"
  value-qualifier: "="
  solubility at 24 h, µg/mL: 1.3
- molecule: "COc1cc(OC(C)c2cccc(C(F)(F)F)n2)ccc1-c1cnc(-c2ccc(F)nc2)[nH]1 (stereo not shown) [Example 127]"
  value-qualifier: "<"
  solubility at 24 h, µg/mL: 0.3
- molecule: "COc1cc(OCc2ccc(C(F)(F)F)[n+]([O-])c2)ccc1-c1[nH]c(-c2ccc(F)nc2)nc1Cl [Example 315]"
  value-qualifier: "="
  solubility at 24 h, µg/mL: 2.7
- molecule: "COc1cc(OCc2cnc(C)cn2)ccc1-c1nc(-c2ccc(Cl)nc2)[nH]c1Cl [Example 219]"
  value-qualifier: "<"
  solubility at 24 h, µg/mL: 1.6
- molecule: "COc1cc(OCc2cncc(C(F)(F)F)c2)ccc1-c1cnc(-c2ccc(Cl)nc2)[nH]1 [Example 106]"
  value-qualifier: "="
  solubility at 24 h, µg/mL: 6.3
- molecule: "COc1cc(OCc2ccc(C(F)(F)F)nc2)ccc1-c1cnc(C2CCC(F)(F)C2)[nH]1 (stereo not shown) [Example 3]"
  value-qualifier: "="
  solubility at 24 h, µg/mL: 1
